These entries and their values trace back to ChEMBL document CHEMBL3301361.

Experiment: in vitro
Settings: SD, HW or BN, rat, plasma
Measured fraction unbound at 5 h accompanies every entry in the list below.
Answer using only a numeral; do not append any unit.

Field: example entries. Status: answers known.
INSERT INTO results (compound, numeric_readout) VALUES
  ('O=C1COc2nccc(-c3ccccc3F)c2CN1Cc1cc(C(F)(F)F)cc(C(F)(F)F)c1', 0.0081),
  ('Nc1nc2ccc(C(=O)c3ccccc3)cc2[nH]1', 0.0736),
  ('Cc1ccc2c(c1)c(-c1ccnc3c(Cl)cccc13)c(C)n2CC(=O)O', 0.0077),
  ('CC1(C)[C@H](NC(=O)/C(=N\OCc2cc(=O)c(O)cn2O)c2csc(N)n2)C(=O)N1OS(=O)(=O)O', 0.124),
  ('Cc1cccc([C@H](C)c2c[nH]c(=S)[nH]2)c1C', 0.19);

Requested field: fraction unbound at 5 h. Item: `Cc1ncsc1C(=O)N(Cc1cc(=O)[nH]c2c(F)cccc12)c1cccc(Cl)c1`
0.0836

# fraction unbound at 5 h lookup, item `Cc1c[nH]c(-c2cnc(NCCNc3ccc(C#N)cn3)nc2-c2ccc(Cl)cc2Cl)n1`
0.0447

Item CCOC(=O)C1=C(C)NC(C)=C(C(=O)OC)C1c1cccc([N+](=O)[O-])c1 (stereo not given) has what recorded fraction unbound at 5 h?
0.0077

Item under review: CC(C)C(NC(=O)c1ccccc1)C(=O)c1ccc(F)cc1 (stereo not given) . Reported fraction unbound at 5 h?
0.0836
